ASSAY_COMMENT: Solubility of the compound in water
Assay type: physicochemical

[
  {
    "CHEMICAL_SMILES": "O=S(=O)(O)c1ccc(-c2ccccc2)cc1.O=S(=O)(c1cccc(CCCCOCCCCCCNC[C@H](O)c2ccc(O)c(CO)c2)c1)C1CCCC1",
    "solubility": "< 10 µg/mL"
  }
]

###

ASSAY_COMMENT: Oral bioavailability in Han Wistar rat at 2 mg/kg up to 7 hrs by LC-MS/MS analysis
Format: ADME, organism-based
CONDITION_LABEL: in vivo
MEASURED_ATTRIBUTE: bioavailability

[
  {
    "CHEMICAL_SMILES": "CC(=O)O.O=S(=O)(c1cccc(CCCCOCCCCCCNC[C@H](O)c2ccc(O)c(CO)c2)c1)C1CCCC1",
    "MEASURED_ATTRIBUTE": "bioavailability",
    "OBSERVED_VALUE": "< 2%"
  }
]

###

TARGET_UNDER_TEST: Cytochrome P450 3A4 (Homo sapiens, UniProt P08684)
Sequence (P08684 whole entry): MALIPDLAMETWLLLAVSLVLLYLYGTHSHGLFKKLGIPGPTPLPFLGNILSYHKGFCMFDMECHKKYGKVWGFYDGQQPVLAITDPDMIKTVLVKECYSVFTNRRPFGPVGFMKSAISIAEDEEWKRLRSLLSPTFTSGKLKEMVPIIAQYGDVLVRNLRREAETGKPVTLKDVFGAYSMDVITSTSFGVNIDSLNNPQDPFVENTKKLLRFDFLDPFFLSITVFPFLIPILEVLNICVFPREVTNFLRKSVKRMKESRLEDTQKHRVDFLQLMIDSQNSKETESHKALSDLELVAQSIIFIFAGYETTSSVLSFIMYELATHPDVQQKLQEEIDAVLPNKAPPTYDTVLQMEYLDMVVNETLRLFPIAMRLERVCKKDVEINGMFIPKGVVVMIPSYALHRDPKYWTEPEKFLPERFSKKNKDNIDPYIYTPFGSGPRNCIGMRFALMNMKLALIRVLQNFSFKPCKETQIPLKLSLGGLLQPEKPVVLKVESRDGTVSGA
ASSAY_COMMENT: Inhibition of human CYP3A4 expressed in Escherichia coli using diethoxyfluorescein as substrate
Format: ADME
pIC50: −log10 of the molar value.

[
  {
    "CHEMICAL_SMILES": "CC(=O)O.O=S(=O)(c1cccc(CCCCOCCCCCCNC[C@H](O)c2ccc(O)c(CO)c2)c1)C1CCCC1",
    "TARGET_UNDER_TEST": "Cytochrome P450 3A4 (Homo sapiens, UniProt P08684)",
    "pIC50": 5.80
  }
]

###

TARGET_UNDER_TEST: Beta-1 adrenergic receptor (Homo sapiens)
Sequence (P08588 whole entry): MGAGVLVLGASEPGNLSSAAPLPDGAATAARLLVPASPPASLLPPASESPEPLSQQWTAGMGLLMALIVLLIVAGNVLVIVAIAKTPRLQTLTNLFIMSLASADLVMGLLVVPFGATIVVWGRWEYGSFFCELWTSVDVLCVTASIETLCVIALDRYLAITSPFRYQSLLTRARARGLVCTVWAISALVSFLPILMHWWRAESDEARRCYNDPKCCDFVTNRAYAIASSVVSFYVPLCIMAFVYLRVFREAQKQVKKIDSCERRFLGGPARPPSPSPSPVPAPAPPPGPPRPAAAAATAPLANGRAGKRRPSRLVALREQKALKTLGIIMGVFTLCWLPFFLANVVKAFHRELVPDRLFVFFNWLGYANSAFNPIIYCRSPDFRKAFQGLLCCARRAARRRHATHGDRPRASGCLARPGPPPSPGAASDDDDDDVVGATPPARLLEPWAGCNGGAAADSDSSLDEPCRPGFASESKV
ASSAY_COMMENT: Agonist activity at human beta1 adrenoceptor transfected in CHO cells assessed as cyclic AMP accumulation after 45 mins by fluorescence polarization assay
MEASURED_ATTRIBUTE: EC50

[
  {
    "CHEMICAL_SMILES": "CS(=O)(=O)c1ccc(CCCCOCCCCCCNC[C@H](O)c2ccc(O)c(CO)c2)cc1",
    "MEASURED_ATTRIBUTE": "EC50",
    "OBSERVED_VALUE": "6310 nM"
  },
  {
    "CHEMICAL_SMILES": "O=S1(=O)CCc2ccc(CCCCOCCCCCCNC[C@H](O)c3ccc(O)c(CO)c3)cc21",
    "MEASURED_ATTRIBUTE": "EC50",
    "OBSERVED_VALUE": "2000 nM"
  },
  {
    "CHEMICAL_SMILES": "Cc1cc(CCCCOCCCCCCNC[C@H](O)c2ccc(O)c(CO)c2)cc(S(=O)(=O)C2CCCC2)c1",
    "MEASURED_ATTRIBUTE": "EC50",
    "OBSERVED_VALUE": "158 nM"
  },
  {
    "CHEMICAL_SMILES": "O=S1(=O)CCCc2ccc(CCCCOCCCCCCNC[C@H](O)c3ccc(O)c(CO)c3)cc21",
    "MEASURED_ATTRIBUTE": "EC50",
    "OBSERVED_VALUE": "2000 nM"
  },
  {
    "CHEMICAL_SMILES": "CC(=O)O.O=S(=O)(c1cccc(CCCCOCCCCCCNC[C@H](O)c2ccc(O)c(CO)c2)c1)C1CCCC1",
    "MEASURED_ATTRIBUTE": "EC50",
    "OBSERVED_VALUE": "501 nM"
  },
  {
    "CHEMICAL_SMILES": "O=S(=O)(c1cccc(CCCCOCCCCCCNC[C@H](O)c2ccc(O)c(CO)c2)c1)C1CCCCC1",
    "MEASURED_ATTRIBUTE": "EC50",
    "OBSERVED_VALUE": "251 nM"
  },
  {
    "CHEMICAL_SMILES": "O=S(=O)(c1ccc(CCCCOCCCCCCNC[C@H](O)c2ccc(O)c(CO)c2)cc1)C1CCCC1",
    "MEASURED_ATTRIBUTE": "EC50",
    "OBSERVED_VALUE": "1000 nM"
  },
  {
    "CHEMICAL_SMILES": "O=S(=O)(c1cccc(CCCCOCCCCCCNC[C@H](O)c2ccc(O)c(CO)c2)c1)C1CC=CC1",
    "MEASURED_ATTRIBUTE": "EC50",
    "OBSERVED_VALUE": "501 nM"
  }
]
